Just for reference, ChEMBL document CHEMBL5346914 is where these values come from.

Provide the recorded half-life at 1 µM for the entries that follow.
- measurement_notes: Microsomal stability in mouse liver microsome assessed as half life at 1 uM preincubated for 10 mins followed by NADPH addition measured upto 60 mins by HPLC-MS/MS analysis
- Format: ADME
- recorded_conditions: liver microsomes, time < 70 min
One number for each entry, in min.

compound	assay_endpoint	endpoint_unit	endpoint_value
CCS(=O)(=O)c1ccc(C(COC)NC(=O)c2ccc3c(c2)c2cc(CC4CC4)ccc2n3CCF)cc1 (racemic)	half-life at 1 µM	min	37.1
CCn1c2ccc(OC(C)C)cc2c2cc(C(=O)NCc3ccc(S(C)(=O)=O)cc3)ccc21	half-life at 1 µM	min	14.8
CCS(=O)(=O)c1ccc(CNC(=O)c2ccc3c(c2)c2cc(OC(C)C)ccc2n3CCF)cc1	half-life at 1 µM	min	14.1
CCn1c2ccc(CC3CC3)cc2c2cc(C(=O)NCc3ccc(S(=O)(=O)CC)cc3)ccc21	half-life at 1 µM	min	48.8
CCn1c2ccc(OC(C)C)cc2c2cc(C(=O)NCc3ccc(S(=O)(=O)CC)cc3)ccc21	half-life at 1 µM	min	8.7
CCS(=O)(=O)c1ccc(CNC(=O)c2ccc3c(c2)c2cc(CC4CC4)ccc2n3CCF)cc1	half-life at 1 µM	min	80.4
CCn1c2ccc(CC3CC3)cc2c2cc(C(=O)N[C@H](COC)c3ccc(S(=O)(=O)CC)cc3)ccc21	half-life at 1 µM	min	40.8
CCn1c2ccc(CC(C)(C)F)cc2c2cc(C(=O)NCc3ccc(S(=O)(=O)CC)cc3)ccc21	half-life at 1 µM	min	20.8
CCn1c2ccc(OCC(C)C)cc2c2cc(C(=O)NCc3ccc(S(=O)(=O)CC)cc3)ccc21	half-life at 1 µM	min	20.4
CCn1c2ccc(OC(C)C)cc2c2cc(C(=O)NCc3ccc(S(=O)(=O)CC)cn3)ccc21	half-life at 1 µM	min	18.2

# input for lookup
Any idea what half-life at 1 µM was measured for CCn1c2ccc(OC3CC3)cc2c2cc(C(=O)NCc3ccc(S(=O)(=O)CC)cc3)ccc21 ?
16.5

====

- measurement_notes: Microsomal stability in mouse liver microsome assessed as half life at 1 uM preincubated for 10 mins followed by NADPH addition measured upto 60 mins by HPLC-MS/MS analysis
- Format: ADME
- recorded_conditions: liver microsomes, time < 70 min
I would appreciate it if you labelled entries 1 (yes) when half-life at 1 µM is 20 min or higher, otherwise 0 (no).

compound	category
CCn1c2ccc(OC3CCC3)cc2c2cc(C(=O)NCc3ccc(S(=O)(=O)CC)cc3)ccc21	0 (no)
CCn1c2ccc(CC(C)C)cc2c2cc(C(=O)NCc3ccc(S(=O)(=O)CC)cc3)ccc21	1 (yes)
CCn1c2ccc(CC(C)C(F)(F)F)cc2c2cc(C(=O)NCc3ccc(S(=O)(=O)CC)cc3)ccc21 (stereo not drawn)	1 (yes)
CCn1c2ccc(OC(C)C)cc2c2cc(C(=O)NCc3ccc(S(C)(=O)=O)cn3)ccc21	0 (no)
CCn1c2ccc(OC(C)C)cc2c2cc(C(=O)NC(CO)c3ccc(S(=O)(=O)CC)cc3)ccc21 (racemic)	0 (no)
CCn1c2ccc(CC3CC3)cc2c2cc(C(=O)NC(COC)c3ccc(S(=O)(=O)CC)cc3)ccc21 (racemic)	1 (yes)

Continue with the compound presented below.
Hello, I need to know if CCn1c2ccc(CC3CC3)cc2c2cc(C(=O)NC(CO)c3ccc(S(=O)(=O)CC)cc3)ccc21 (racemic) has measured half-life at 1 µM not below 20 min. Thanks!
1 (yes)

====

Kindly supply the reported EC50 values for the records listed here.
- target_entity: Nuclear receptor ROR-gamma (Homo sapiens)
- measurement_notes: Agonist activity at human RORgammat LBD (265 to 507 residues) expressed in Escherichia coli BL21(DE3) cells incubated for 1 hr FRET assay

Example results:
molecule	target_entity	endpoint_value
CCn1c2ccc(OC(C)C)cc2c2cc(C(=O)NCc3ccc(S(=O)(=O)CC)cn3)ccc21	Nuclear receptor ROR-gamma (Homo sapiens)	0.0056 µM
CCS(=O)(=O)c1ccc(C(COC)NC(=O)c2ccc3c(c2)c2cc(CC4CC4)ccc2n3CCF)cc1 (racemic)	Nuclear receptor ROR-gamma (Homo sapiens)	0.0283 µM
CCn1c2ccc(CC(C)C)cc2c2cc(C(=O)NCc3ccc(S(=O)(=O)CC)cc3)ccc21	Nuclear receptor ROR-gamma (Homo sapiens)	0.0109 µM
CCn1c2ccc(CC3CCC3)cc2c2cc(C(=O)NCc3ccc(S(=O)(=O)CC)cc3)ccc21	Nuclear receptor ROR-gamma (Homo sapiens)	0.0126 µM
CCn1c2ccc(CC3CC3)cc2c2cc(C(=O)NCc3ccc(S(C)(=O)=O)cn3)ccc21	Nuclear receptor ROR-gamma (Homo sapiens)	0.0125 µM

Hey, quick one: what's EC50 for each of these?
1. CCn1c2ccc(CN(C)C)cc2c2cc(C(=O)NCc3ccc(S(=O)(=O)CC)cc3)ccc21
2. CCn1c2ccc(C(=O)NCc3ccc(S(=O)(=O)CC)cc3)cc2c2c(OC(C)C)cccc21
3. CCS(=O)(=O)c1ccc(CNC(=O)c2ccc3c(c2)c2cc(OC(C)C)ccc2n3CCF)cc1

1. 0.181 µM
2. 0.0294 µM
3. 0.0078 µM

Endpoint output: EC50 of CCn1c2ccc(CC3CC3)cc2c2cc(C(=O)NCc3ccc(S(=O)(=O)CC)cn3)ccc21 . Value?
0.0097 µM

====

Give EC50 for every item shown.
- target_entity: Nuclear receptor ROR-gamma (Homo sapiens)
- Sequence (P51449 whole entry): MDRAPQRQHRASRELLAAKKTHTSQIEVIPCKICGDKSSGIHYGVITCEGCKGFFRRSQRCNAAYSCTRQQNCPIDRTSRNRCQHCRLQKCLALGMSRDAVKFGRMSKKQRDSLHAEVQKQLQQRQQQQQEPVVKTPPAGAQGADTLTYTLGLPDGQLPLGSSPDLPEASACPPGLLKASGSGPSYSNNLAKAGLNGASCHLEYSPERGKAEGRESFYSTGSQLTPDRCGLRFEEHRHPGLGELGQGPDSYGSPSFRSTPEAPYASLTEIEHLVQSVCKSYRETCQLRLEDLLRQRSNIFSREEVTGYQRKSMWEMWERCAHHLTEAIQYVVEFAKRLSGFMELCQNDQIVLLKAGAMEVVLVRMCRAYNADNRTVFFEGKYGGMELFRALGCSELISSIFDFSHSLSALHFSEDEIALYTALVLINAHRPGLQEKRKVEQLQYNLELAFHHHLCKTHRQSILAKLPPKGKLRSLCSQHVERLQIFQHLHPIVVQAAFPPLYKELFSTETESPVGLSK
- measurement_notes: Agonist activity at Gal4-fused human RORgammat LBD expressed in HEK293T cells assessed as luciferase activity incubated for 16 to 20 hrs by luciferase reporter gene assay
- Format: cell-based
Give bare numbers, in nM.

compound	endpoint_value
CCS(=O)(=O)c1ccc(C(COC)NC(=O)c2ccc3c(c2)c2cc(CC4CC4)ccc2n3CCF)cc1 (racemic)	348

Note: attention shifts to another entry.
For CCS(=O)(=O)c1ccc(CNC(=O)c2ccc3c(c2)c2cc(CC4CC4)ccc2n3CCF)cc1 , what is its reported EC50?
245
